FYI, the data here is from patent US20240300991A1.

Quick reference: log10 IC50 of the listed items.
- System: A549 (lung cancer cells)
- Run description: Inhibitory activity against cancer cells (sulforhodamine B staining)
- Type: cell-based
- Settings: 3 days, SRB staining
Use the decimal logarithm of IC50 (µM).

C#Cc1cn([C@@H]2S[C@H](COC(=O)c3c(C)cccc3C)[C@@H](O)[C@H]2O)c2ncnc(N)c12 [Compound 7e] : 0.81

log10 IC50 lookup needed for NC(=O)NC[C@H]1S[C@@H](n2cc(C(N)=O)c3c(N)ncnc32)[C@H](O)[C@@H]1O [Compound 11aiii] , thanks. 0.66

log10 IC50 lookup needed for Nc1ncnc2c1c(-c1ccccc1)cn2[C@@H]1S[C@H](CO)[C@@H](O)[C@H]1O [Compound 2b] , thanks. 0.88

log10 IC50 lookup needed for C#Cc1cn([C@@H]2SC[C@@H](O)[C@H]2O)c2ncnc(N)c12 [Compound 13a] , thanks. -0.23

log10 IC50 lookup needed for NC(=O)c1cn([C@@H]2SC[C@@H](O)[C@H]2O)c2ncnc(N)c12 [Compound 13g] , thanks. 0.72

log10 IC50 lookup needed for N#Cc1cn([C@@H]2S[C@H](CNC(=O)c3ccccc3)[C@@H](O)[C@H]2O)c2ncnc(N)c12 [Compound 8d] , thanks. 1.05

log10 IC50 lookup needed for C#Cc1cn([C@@H]2S[C@H](COC(=O)c3ccc(OC)cc3)[C@@H](O)[C@H]2O)c2ncnc(N)c12 [Compound 7d] , thanks. -0.46

log10 IC50 lookup needed for N#Cc1cn([C@@H]2S[C@H](CN)[C@@H](O)[C@H]2O)c2ncnc(N)c12 [Compound 10b] , thanks. 0.58

log10 IC50 lookup needed for [N-]=[N+]=NC[C@H]1S[C@@H](n2cc(C(N)=O)c3c(N)ncnc32)[C@H](O)[C@@H]1O [Compound 9c] , thanks. -0.62

log10 IC50 lookup needed for C#Cc1cn([C@@H]2S[C@H](COC(=O)c3ccncc3)[C@@H](O)[C@H]2O)c2ncnc(N)c12 [Compound 7f] , thanks. -1.15

log10 IC50 lookup needed for C=Cc1cn([C@@H]2SC[C@@H](O)[C@H]2O)c2ncnc(N)c12 [Compound 13e] , thanks. 0.64

log10 IC50 lookup needed for Nc1ncnc2c1c(-c1ccccc1)cn2[C@@H]1SC[C@@H](O)[C@H]1O [Compound 13d] , thanks. 0.83

log10 IC50 lookup needed for N#Cc1cn([C@@H]2SC[C@@H](O)[C@H]2O)c2ncnc(N)c12 [Compound 13f] , thanks. 0.37

log10 IC50 lookup needed for C#Cc1cn([C@@H]2S[C@H](COC(=O)c3ccccc3)[C@@H](O)[C@H]2O)c2ncnc(N)c12 [Compound 7b] , thanks. 0.50

log10 IC50 lookup needed for NC(=O)c1cn([C@@H]2S[C@H](COC(=O)c3ccccc3)[C@@H](O)[C@H]2O)c2ncnc(N)c12 [Compound 7h] , thanks. 0.68

log10 IC50 lookup needed for C#Cc1cn([C@@H]2S[C@H](CNC(=O)c3ccc(OC)cc3)[C@@H](O)[C@H]2O)c2ncnc(N)c12 [Compound 8c] , thanks. 1.00

log10 IC50 lookup needed for Nc1ncnc2c1c(-c1ccco1)cn2[C@@H]1SC[C@@H](O)[C@H]1O [Compound 13b] , thanks. -0.02

log10 IC50 lookup needed for N#Cc1cn([C@@H]2S[C@H](CN=[N+]=[N-])[C@@H](O)[C@H]2O)c2ncnc(N)c12 [Compound 9b] , thanks. -0.64
